System: CCRF-CEM leukemia
Assay: NCI tumour cell line growth inhibition, 48 h
Property: TGI

Solved cases below.
Cn1c2ccccc2c2c(-c3ccccc3)cc3c(c21)C(=O)C=CC3=O    0.538 µM
C[C@]12C=CC(=O)C=C1CC[C@@H]1[C@@H]2CC[C@]2(C)OC(=O)CC[C@@H]12    > 500 µM
Cn1cc(C(=O)NCCC(=N)N)cc1NC(=O)C1=[N+](C)C=C(NC(=O)c2cccc(C(=O)NC3=CC(C(=O)Nc4cc(C(=O)NCCC(=N)N)cn4C)=[N+](C)C3)c2)C1    > 100 µM

Input line: Param item = CCSc1[nH]c(NC(=S)NC(=O)c2ccccc2Cl)c(C(N)=O)c1C(N)=O ; retrieve measured TGI.
Output line: > 10 µM

---

Each item that follows carries a reported TGI.
Test system: HOP-92 NSCLC
Assay: NCI tumour cell line growth inhibition, 48 h

Solved cases below.
C=C(C)C(=O)Nc1ccc(NC(C)C)cc1    > 100 µM
CN(C)CCCSc1nc2ccccc2[nH]1    > 100 µM

Next compound, TGI to be filled in.
Input line: Param item = CN[C@@H](C)C(=O)N[C@H](C(=O)N1CCC[C@H]1C(=O)Nc1snnc1-c1ccccc1)C1CCCCC1 ; retrieve measured TGI.
Output line: 27.7 µM

---

System: HOP-92 NSCLC
Experiment: NCI tumour cell line growth inhibition, 48 h; in the data active = GI50 below about 0.43 µM; inactive = the rest
Select the matching outcome among active, inactive

Input line: Given CN(CCCn1c2c(c3ccccc3c1=O)C(=O)c1ccccc1-2)CCCn1c2c(c3ccccc3c1=O)C(=O)c1ccccc1-2 , state the outcome it received in this test.
Output line: active

Input line: Would you mind doing CC(C)N(Cc1ccccc1)c1c(S)ssc1=S as well?
Output line: active

Input line: Would you mind doing C=C(C)C(=O)O[C@H]1CC(=C)[C@@H]2C[C@H](O)[C@](O)(CCl)[C@@H]2[C@H]2OC(=O)C(=C)[C@@H]21 as well?
Output line: inactive

Input line: Would you mind doing COc1ccc(-c2c[nH]c(C(=O)O)c2-c2cc(OC)c(OC)c(OC)c2)cc1 as well?
Output line: inactive

Input line: Would you mind doing COc1ccc(-c2nc(-c3nc4ccc(OC)cc4[nH]3)c3ccccn23)cc1 as well?
Output line: inactive

Input line: Would you mind doing C[C@H]1[C@H](C)CC[C@]2(CO)CC[C@]3(C)C(=CC[C@@H]4[C@@]5(C)CCCNC(C)(C)[C@@H]5CC[C@]43C)[C@H]12 as well?
Output line: inactive

Input line: Would you mind doing COc1cnc2c(c1)C(=O)c1c-2n(CCCn2ccnc2)c(=O)c2cc(F)ccc12 as well?
Output line: active

Input line: Would you mind doing COc1cc2c(cc1C)NC(=O)/C2=C/c1ccccn1 as well?
Output line: inactive

Input line: Would you mind doing COc1cc2c(c(OC)c1OC)-c1ccc(SC)c(=O)cc1C(CO)C2 (stereo not given) as well?
Output line: active

Input line: Would you mind doing Cc1cc(O)c(C(C)C)cc1S(=O)(=O)O (tested in a mixture with another compound) as well?
Output line: active

---

Test system: SF-295 CNS
Test: NCI tumour cell line growth inhibition, 48 h
Property: TGI

Solved cases below.
Cc1ccc(Nc2n[nH]c(=S)s2)cc1C    > 100 µM
COc1cc(/C=C2/C(=O)N(C(=O)OCC(C)C)C(Cc3cc(OC)c(OC)c(C)c3OC)C(=O)N2Cc2ccccc2)c(OC)c(C)c1OC (stereo not drawn)    > 100 µM
O=C(O)c1nc2cc(C(F)(F)F)ccc2nc1Nc1ccc(F)cc1    58.4 µM
O=c1oc2ccc3ccccc3c2cc1-c1cn2ccccc2n1    > 100 µM
COc1cc(C(=O)O[C@H](C(=O)NCCCCCNC(=O)[C@@H](OC(=O)c2cc(OC)cc3c(C)cccc23)[C@]2(C)CO2)[C@]2(C)CO2)c2cccc(C)c2c1    6.75 µM

Input line: Hi! What's the reported TGI for O=C1/C(=C/c2cccc(Br)c2)CCc2ccccc21 on SF-295 CNS?
Output line: 28.5 µM

Input line: Would you mind doing CN(C)CCCSc1nc2ccccc2[nH]1 as well?
Output line: > 100 µM

Input line: Would you mind doing COc1ccc(C(=O)OC2C(OC3C(O)COC(O[C@H]4C[C@H]5[C@@H]6CC=C7C[C@@H](O)CC[C@]7(C)[C@H]6CC[C@]5(C)[C@H]4[C@H](C)C(=O)CCC(C)C)C3OC(N)=O)OCC(O)C2O)cc1 (stereo partly drawn) as well?
Output line: 0.00922 µM

Input line: Would you mind doing COc1ccc2c3c1O[C@]1(C)C34CCN(C)C(C2)C42C=C[C@@]1(OC)c1c(O)ccc(O)c12 as well?
Output line: > 100 µM

Input line: Would you mind doing CNS(=O)(=O)NN(C)S(=O)(=O)c1ccccc1 as well?
Output line: > 100 µM

Input line: Would you mind doing COc1cc2c(oc(=O)c3c4oc([Si](C)(C)C)cc4cc(OC)c23)c2cccc(OCc3ccccc3)c12 as well?
Output line: 50.9 µM

Input line: Would you mind doing CN(O)c1nc(N(C)O)nc(N2CCOCC2)n1 as well?
Output line: > 100 µM

Input line: Would you mind doing Cn1c2ccccc2n2c(N=O)c(-c3ccccc3)nc12 as well?
Output line: > 100 µM

---

Each item that follows carries a reported GI50.
Tested on: NCI-H23 lung
Assay: NCI tumour cell line growth inhibition, 48 h

Solved cases below.
COc1ccc(-c2nc(-c3nc4ccc(OC)cc4[nH]3)c3ccccn23)cc1    12.7 µM
COc1ccc(-c2cc(=O)[nH]c3c(OC)c4ccccc4c(OC)c23)cc1    0.817 µM
C=C1C(=O)O[C@H]2[C@H]1CC/C(COC(=O)NCc1cn(C)c3ccccc13)=C\CC[C@@]1(C)O[C@@H]21    2.01 µM
COc1cc([N+](=O)[O-])c(OC)cc1-c1nc2sc(Cl)cn2c1/C(N)=N/C(=N)N    3.43 µM

Next compound, GI50 to be filled in.
Input line: Hi! What's the reported GI50 for COc1cc(CSc2nc3ccc(C)cc3c(=O)n2-c2ccccc2)cc(OC)c1OC on NCI-H23 lung?
Output line: 6.97 µM

---

Test system: OVCAR-8 ovarian
Assay: NCI tumour cell line growth inhibition, 48 h
Each item that follows carries a reported TGI.

C=CCN1C(=O)C=C(c2ccccc2)n2ncc3cccc1c32    > 100 µM
COC1CC(OS(=O)(=O)c2ccc([N+](=O)[O-])cc2)C(OC(=O)c2ccccc2)C(C)O1 (stereo not drawn)    > 100 µM
CSc1nc(C#N)c(/N=C\N(C)C)n1C    > 100 µM
COc1cc(/C=C2/C(=O)N(C(=O)OCC(C)C)C(Cc3cc(OC)c(OC)c(C)c3OC)C(=O)N2Cc2ccccc2)c(OC)c(C)c1OC (stereo not drawn)    > 100 µM

Input line: Param item = O=[N+]([O-])O.[Cu+2].[NH-]CC[NH-].[NH-]CC[NH-] ; retrieve measured TGI.
Output line: > 10 µM

Input line: Would you mind doing CCCCCCCCCCCCCCCCCCNC(=O)C(N)Cc1ccc(OCc2ccccc2)cn1 (stereo not drawn) as well?
Output line: 37.3 µM

Input line: Would you mind doing COC1(OC)c2no[n+]([O-])c2CCC1O (stereo not drawn) as well?
Output line: > 100 µM

Input line: Would you mind doing CN(O)c1nc(N(C)O)nc(N2CCOCC2)n1 as well?
Output line: > 100 µM

Input line: Would you mind doing COC(=O)[C@@H]1CN(C(C)=O)C(=O)N1 as well?
Output line: > 100 µM

Input line: Would you mind doing Cn1cc(C(=O)NCCC(=N)N)cc1NC(=O)C1=[N+](C)C=C(NC(=O)c2cccc(C(=O)NC3=CC(C(=O)Nc4cc(C(=O)NCCC(=N)N)cn4C)=[N+](C)C3)c2)C1 as well?
Output line: > 100 µM

Input line: Would you mind doing Cc1csc2[n+]1C(=O)/C(=C\c1ccc([N+](=O)[O-])cc1)S2 as well?
Output line: > 100 µM

Input line: Would you mind doing COc1cc(CSc2nc3ccc(C)cc3c(=O)n2-c2ccccc2)cc(OC)c1OC as well?
Output line: > 100 µM

Input line: Would you mind doing COc1cc2c(c(O)c1OC)-c1c(cc(OC)c(OC)c1OC)CC(C)C(C)C2 (stereo not drawn) as well?
Output line: > 100 µM

---

Tested on: SK-MEL-28 melanoma
Experiment: NCI tumour cell line growth inhibition, 48 h
Property: TGI

Solved cases below.
O=C(CSc1nnc(-c2ccc(N=Cc3ccc(Cl)cc3)cc2)o1)Nc1ccccc1[N+](=O)[O-]    > 100 µM
CN1CCc2[nH]c3ccccc3c2C1    > 100 µM

Input line: Param item = CCC(C)(CC(C)(C)C(=O)NCC(=O)NC(Cc1ccccc1)C(=O)NC(Cc1ccccc1)C(=O)NCC(=O)NC1CC(OC2CC(O)(C(=O)CO)Cc3c(O)c4c(c(O)c32)C(=O)c2c(OC)cccc2C4=O)OC(C)C1O)C(=O)NCC(C)O (stereo not drawn) ; retrieve measured TGI.
Output line: > 150 µg/mL
